Data credit: patent US20210347758A1

experiment: physchem; details: pH 4.5 sodium acetate/acetic acid buffer, 37 °C, pH 4.5, aqueous buffer, thermodynamic from solid, Solubility, pH 4.5 buffer (50 mM), shaken at 37° C. for 24 hours in total, average of triplicate
reported-property: solubility at 24 h (mg/mL)
Numbers only, in mg/mL.

Ask: Name the recorded solubility at 24 h for NC(=O)c1cccc2cn(-c3ccc([C@@H]4CCCNC4)cc3)nc12 [Amorphous Form] .
Result: 13.4
